From: patent US20260207637A1

Measured fraction unbound at 6 h, 1 μM, listed per entry for reference.
assay: Binding rate test of compounds and human plasma protein (equilibrium dialysis); assay type: in vitro ADME; settings: human plasma, equilibrium dialysis 6 hours, 37° C.
Parameter measured: fraction unbound at 6 h, 1 μM

{"Compound": "C/C(=C\\CCP(=O)(N[C@@H](C)C(=O)OC1CCN(CC(F)(F)F)CC1)Oc1ccccc1)CO (stereo partly shown)", "Observed result": 0.129}
{"Compound": "C/C(=C\\CCP(=O)(N[C@@H](C)C(=O)O[C@@H]1CCOC1)Oc1ccccc1)CO (stereo partly shown)", "Observed result": 0.222}
{"Compound": "C/C(=C\\CCP(=O)(N[C@@H](C)C(=O)OC1(C#N)CCCC1)Oc1ccccc1)CO (stereo partly shown)", "Observed result": 0.038}
{"Compound": "C/C(=C\\CCP(=O)(N[C@@H](C)C(=O)O[C@@H]1CCNC(=O)C1)Oc1ccccc1)CO (stereo partly shown)", "Observed result": 0.429}

###

Test system: MIApaca/FG2 cells
Assay: EC50 assay of small molecule activated γδ T cells to kill MIApaca/FG2 tumor cells (3-fold dilution protocol)
Type: cell-based
Conditions: γδT cells + MIApaca/FG2, E:T=2:1, co-culture 20 hours, 0.05-100 nM, read-out: MIApaca killing (EC50)
Method: γδT cells and MIApaca/FG2 tumor cell lines were expanded and cultured in vitro. MIApaca/FG2 cells were digested, and the cells were counted and resuspended in DMEM complete medium, the density of the cell suspension was adjusted and added into a 96-well plate at 5×10^3 cells/100 […]/well for overnight incubation. […] After standing for 18 minutes in the dark, the signal of chemiluminescence was detected. […]
pEC50: −log10 of the molar value.
Measured pEC50, listed per entry for reference.
Parameter measured: pEC50

{"Compound": "C/C(=C\\CC(F)(F)P(=O)(N[C@@H](C)C(=O)OC1CCOCC1)Oc1ccccc1)CO (stereo partly drawn)", "Parameter measured": "pEC50", "Observed result": 9.19}
{"Compound": "C/C(=C\\CCP(=O)(N[C@@H](C)C(=O)OC1CCS(=O)(=O)CC1)Oc1ccccc1)CO (stereo partly drawn)", "Parameter measured": "pEC50", "Observed result": 9.06}
{"Compound": "CC(C)OC(=O)[C@H](C)NP(=O)(CC/C=C(/CO)C(F)(F)F)Oc1ccccc1 (stereo partly drawn)", "Parameter measured": "pEC50", "Observed result": 9.11}
{"Compound": "CC(=O)N1CCC(OC(=O)[C@H](C)NP(=O)(CC/C=C(\\C)CO)Oc2ccccc2)CC1 (stereo partly drawn)", "Parameter measured": "pEC50", "Observed result": 8.79}
{"Compound": "CC(C)OC(=O)[C@H](C)NP(=O)(CC/C=C(\\F)CO)Oc1ccccc1 (stereo partly drawn)", "Parameter measured": "pEC50", "Observed result": 8.40}
{"Compound": "C/C(=C\\CCP(=O)(N[C@@H](C)C(=O)O[C@@H]1CCOC1)Oc1cccc2ccccc12)CO (stereo partly drawn)", "Parameter measured": "pEC50", "Observed result": 9.92}
{"Compound": "C/C(=C\\CC[P@@](=O)(N[C@@H](C)C(=O)O[C@@H]1CCOC1)Oc1ccccc1)CO", "Parameter measured": "pEC50", "Observed result": 9.55}
{"Compound": "C/C(=C\\CCP(=O)(N[C@@H](C)C(=O)O[C@@H]1CCOC1)Oc1ccc(C)cc1)CO (stereo partly drawn)", "Parameter measured": "pEC50", "Observed result": 9.26}
{"Compound": "C/C(=C\\CCP(=O)(N[C@@H](C)C(=O)O[C@@H]1CCOC1)Oc1ccc(Cl)cc1)CO (stereo partly drawn)", "Parameter measured": "pEC50", "Observed result": 9.70}
{"Compound": "C/C(=C\\CCP(=O)(N[C@@H](C)C(=O)O[C@H]1C[C@@H](C)O[C@@H](C)C1)Oc1ccccc1)CO (stereo partly drawn)", "Parameter measured": "pEC50", "Observed result": 8.99}
{"Compound": "C/C(=C\\CCP(=O)(N[C@@H](C)C(=O)OCCO)Oc1ccccc1)CO (stereo partly drawn)", "Parameter measured": "pEC50", "Observed result": 9.77}
{"Compound": "C/C(=C\\CCP(=O)(NC(C)(C)C(=O)O[C@@H]1CCOC1)Oc1ccccc1)CO (stereo partly drawn)", "Parameter measured": "pEC50", "Observed result": 10.00}
